Source: patent US20030166601A1

We begin with a simple list: items and their reported Luciferase RLU/20 μl lysate liver.
system: CD-1 mice; experiment: Luciferase expression in organs after intravenous injection of pCILuc complexes; format: in vivo; conditions: WR 10; liver; 40 μg pCILuc i.v., 5 h
Readout: Luciferase RLU/20 μl lysate liver

molecule=CC(C)CCC[C@@H](C)[C@H]1CC[C@H]2[C@@H]3CC=C4C[C@@H](OC(=O)NCCNC(=O)[C@@H](N)CCCN)CC[C@]4(C)[C@H]3CC[C@]12C val="73 RLU/20 μl lysate"
molecule="CCCCCCCCCCCCCCCCCCN(CCCCCCCCCCCCCCCCCC)C(=O)C(CSSCC(NC(=O)C(CCCNCCCN)NCCCN)C(=O)N(CCCCCCCCCCCCCCCCCC)CCCCCCCCCCCCCCCCCC)NC(=O)C(CCCNCCCN)NCCCN.O=C(O)C(F)(F)F.O=C(O)C(F)(F)F.O=C(O)C(F)(F)F.O=C(O)C(F)(F)F.O=C(O)C(F)(F)F.O=C(O)C(F)(F)F.O=C(O)C(F)(F)F.O=C(O)C(F)(F)F (stereo not shown)" val="0 RLU/20 μl lysate"
molecule=CCCCCCCCCCCCCCCCCC(CCCCCCCCCCCCCCCCC)OC(=O)NCCNC(=O)[C@@H](N)CCCN.O=C(O)C(F)(F)F.O=C(O)C(F)(F)F val="1,093 RLU/20 μl lysate"
molecule=CCCCCCCCCCCCCCCCCC(CCCCCCCCCCCCCCCCC)OC(=O)NCCNC(=O)[C@H](CCCNCCCN)NCCCN.O=C(O)C(F)(F)F.O=C(O)C(F)(F)F.O=C(O)C(F)(F)F.O=C(O)C(F)(F)F val="65 RLU/20 μl lysate"
molecule=CCCCCCCCCCCCCCCCCCN(CCCCCCCCCCCCCCCCCC)C(=O)CNC(=O)[C@@H](N)CCCN.O=C(O)C(F)(F)F.O=C(O)C(F)(F)F val="50 RLU/20 μl lysate"
molecule=CCCCCCCCCCCCCCCCCCN(CCCCCCCCCCCCCCCCCC)C(=O)CC[C@H](NC(=O)[C@H](CCCNCCCN)NCCCN)C(=O)O.O=C(O)C(F)(F)F.O=C(O)C(F)(F)F.O=C(O)C(F)(F)F.O=C(O)C(F)(F)F val="46 RLU/20 μl lysate"
molecule=CCCCCCCCCCCCCCCCCCN(CCCCCCCCCCCCCCCCCC)C(=O)CNC(=O)[C@H](CCCN(CCCN)CCCN)N(CCCN)CCCN.O=C(O)C(F)(F)F.O=C(O)C(F)(F)F.O=C(O)C(F)(F)F.O=C(O)C(F)(F)F.O=C(O)C(F)(F)F.O=C(O)C(F)(F)F val="95 RLU/20 μl lysate"
molecule=CCCCCCCCCCCCCCCCCCN(CCCCCCCCCCCCCCCCCC)C(=O)[C@H](CSSC[C@H](NC(=O)[C@@H](N)CCCN)C(=O)N(CCCCCCCCCCCCCCCCCC)CCCCCCCCCCCCCCCCCC)NC(=O)[C@@H](N)CCCN.O=C(O)C(F)(F)F.O=C(O)C(F)(F)F.O=C(O)C(F)(F)F.O=C(O)C(F)(F)F val="27 RLU/20 μl lysate"
molecule=CCCCCCCCCCCCCCCCCC(CCCCCCCCCCCCCCCCC)NC(=O)CNC(=O)CNC(=O)[C@H](CCCNCCCN)NCCCN.O=C(O)C(F)(F)F.O=C(O)C(F)(F)F.O=C(O)C(F)(F)F.O=C(O)C(F)(F)F val="93 RLU/20 μl lysate"
molecule=CCCCCCCCCCCCCCCCCC(CCCCCCCCCCCCCCCCC)NC(=O)CNC(=O)CNC(=O)[C@@H](N)CCCN.O=C(O)C(F)(F)F.O=C(O)C(F)(F)F val="212 RLU/20 μl lysate"

====

test system: CD-1 mice; experiment: Luciferase expression in organs after intravenous injection of pCILuc complexes; format: in vivo; details: WR 10; spleen; 40 μg pCILuc i.v., 5 h
Decision: Luciferase RLU/20 μl lysate spleen >= 50 RLU/20 μl lysate yields Fulfilled, all other cases yield Not fulfilled.

compound="CCCCCCCCCCCCCCCCCCN(CCCCCCCCCCCCCCCCCC)C(=O)CNC(=O)[C@H](CCCN(CCCN)CCCN)N(CCCN)CCCN.O=C(O)C(F)(F)F.O=C(O)C(F)(F)F.O=C(O)C(F)(F)F.O=C(O)C(F)(F)F.O=C(O)C(F)(F)F.O=C(O)C(F)(F)F [GC-016]" tested_system="CD-1 mice" cat=Fulfilled
compound="CC(C)CCC[C@@H](C)[C@H]1CC[C@H]2[C@@H]3CC=C4C[C@@H](OC(=O)NCCNC(=O)[C@@H](N)CCCN)CC[C@]4(C)[C@H]3CC[C@]12C [GC-003]" tested_system="CD-1 mice" cat=Fulfilled
compound="CCCCCCCCCCCCCCCCCCN(CCCCCCCCCCCCCCCCCC)C(=O)C(CSSCC(NC(=O)C(CCCNCCCN)NCCCN)C(=O)N(CCCCCCCCCCCCCCCCCC)CCCCCCCCCCCCCCCCCC)NC(=O)C(CCCNCCCN)NCCCN.O=C(O)C(F)(F)F.O=C(O)C(F)(F)F.O=C(O)C(F)(F)F.O=C(O)C(F)(F)F.O=C(O)C(F)(F)F.O=C(O)C(F)(F)F.O=C(O)C(F)(F)F.O=C(O)C(F)(F)F (stereo not shown) [GC-026]" tested_system="CD-1 mice" cat="Not fulfilled"
compound="CCCCCCCCCCCCCCCCCCN(CCCCCCCCCCCCCCCCCC)C(=O)CNC(=O)[C@@H](N)CCCN.O=C(O)C(F)(F)F.O=C(O)C(F)(F)F [GC-035]" tested_system="CD-1 mice" cat=Fulfilled
compound="CCCCCCCCCCCCCCCCCCN(CCCCCCCCCCCCCCCCCC)C(=O)[C@H](CSSC[C@H](NC(=O)[C@@H](N)CCCN)C(=O)N(CCCCCCCCCCCCCCCCCC)CCCCCCCCCCCCCCCCCC)NC(=O)[C@@H](N)CCCN.O=C(O)C(F)(F)F.O=C(O)C(F)(F)F.O=C(O)C(F)(F)F.O=C(O)C(F)(F)F [GC-025]" tested_system="CD-1 mice" cat="Not fulfilled"
compound="CCCCCCCCCCCCCCCCCC(CCCCCCCCCCCCCCCCC)OC(=O)NCCNC(=O)[C@H](CCCNCCCN)NCCCN.O=C(O)C(F)(F)F.O=C(O)C(F)(F)F.O=C(O)C(F)(F)F.O=C(O)C(F)(F)F [GC-029]" tested_system="CD-1 mice" cat=Fulfilled
compound="CCCCCCCCCCCCCCCCCC(CCCCCCCCCCCCCCCCC)NC(=O)CNC(=O)CNC(=O)[C@@H](N)CCCN.O=C(O)C(F)(F)F.O=C(O)C(F)(F)F [GC-039]" tested_system="CD-1 mice" cat=Fulfilled
compound="CCCCCCCCCCCCCCCCCC(CCCCCCCCCCCCCCCCC)NC(=O)CNC(=O)CNC(=O)[C@H](CCCNCCCN)NCCCN.O=C(O)C(F)(F)F.O=C(O)C(F)(F)F.O=C(O)C(F)(F)F.O=C(O)C(F)(F)F [GC-038]" tested_system="CD-1 mice" cat=Fulfilled

====

tested on: CD-1 mice; experiment: Luciferase expression in organs after intravenous injection of pCILuc complexes; format: in vivo; conditions: WR (lipid to DNA) 2; spleen; 40 μg pCILuc i.v., 5 h
Readout: Luciferase RLU/20 μl lysate spleen (RLU/20 μl lysate)

molecule=CC(C)CCC[C@@H](C)[C@H]1CC[C@H]2[C@@H]3CC=C4C[C@@H](OC(=O)NCCNC(=O)[C@@H](N)CCCN)CC[C@]4(C)[C@H]3CC[C@]12C val=36
molecule=CCCCCCCCCCCCCCCCCCN(CCCCCCCCCCCCCCCCCC)C(=O)CNC(=O)[C@@H](N)CCCN.O=C(O)C(F)(F)F.O=C(O)C(F)(F)F val=70
molecule="CCCCCCCCCCCCCCCCCCN(CCCCCCCCCCCCCCCCCC)C(=O)C(CSSCC(NC(=O)C(CCCNCCCN)NCCCN)C(=O)N(CCCCCCCCCCCCCCCCCC)CCCCCCCCCCCCCCCCCC)NC(=O)C(CCCNCCCN)NCCCN.O=C(O)C(F)(F)F.O=C(O)C(F)(F)F.O=C(O)C(F)(F)F.O=C(O)C(F)(F)F.O=C(O)C(F)(F)F.O=C(O)C(F)(F)F.O=C(O)C(F)(F)F.O=C(O)C(F)(F)F (centres unmarked)" val=40
molecule=CCCCCCCCCCCCCCCCCC(CCCCCCCCCCCCCCCCC)NC(=O)CNC(=O)CNC(=O)[C@H](CCCNCCCN)NCCCN.O=C(O)C(F)(F)F.O=C(O)C(F)(F)F.O=C(O)C(F)(F)F.O=C(O)C(F)(F)F val=61
molecule=CCCCCCCCCCCCCCCCCCN(CCCCCCCCCCCCCCCCCC)C(=O)[C@H](CSSC[C@H](NC(=O)[C@@H](N)CCCN)C(=O)N(CCCCCCCCCCCCCCCCCC)CCCCCCCCCCCCCCCCCC)NC(=O)[C@@H](N)CCCN.O=C(O)C(F)(F)F.O=C(O)C(F)(F)F.O=C(O)C(F)(F)F.O=C(O)C(F)(F)F val=46
